B1: Osa-1-4 twister ribozyme (parent)
chain: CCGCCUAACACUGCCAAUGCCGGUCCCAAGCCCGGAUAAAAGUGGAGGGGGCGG

variants of: B1; assay: self-cleavage, relative activity (ratio to wild type); higher = more cleavage; co-transcriptional
measure: self-cleavage
The answer should be written as a number, with no unit following it.

[ask] Respond only with self-cleavage recorded for U12C U43C
[reply] 0.08

[ask] Provide only the value of recorded self-cleavage for C26G G44U
[reply] 0.08

[ask] For the variant C31U G47C , give its reported self-cleavage.
[reply] 0.03

[ask] Provide measured self-cleavage value, entry: C33G G35C
[reply] 0.03

[ask] Provide self-cleavage value for the following variant: A36C A40G
[reply] 0.12
